Experiment summary: hESC survival regulators, cell-based (AID 493140);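 also: cells exposed to compounds for four days before counting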
Condition details: human embryonic stem cell survival screen; hits give high values
So basically every entry gets a class from its survival, ranges being low range (below 20), mid range (20 to below 90), high range (90 or more)

// below: answered compounds
| Compound | Cat |
| --- | --- |
| Cc1c(O)c(=O)n(-c2ccccc2)n1C | mid range |
| Cc1cnc(C(=O)NCCc2ccc(S(=O)(=O)NC(=O)NC3CCCCC3)cc2)cn1 | mid range |
| CC(C(O)c1ccc(O)cc1)N1CCC(Cc2ccccc2)CC1 (configuration not stated) | low range |
| CN1CCc2cccc3c2[C@H]1Cc1ccc(O)c(O)c1-3 | low range |
| CCN(CC)CC#CCOC(=O)C(O)(c1ccccc1)C1CCCCC1 (configuration not stated) | low range |
| CCOC(=O)c1ccc(OC(=O)CCCCCN=C(N)N)cc1 | low range |
| O=C1Nc2ccc(I)cc2/C1=C/c1cc(Br)c(O)c(Br)c1 | high range |
| Cc1c(C(=O)NN2CCCCC2)nn(-c2ccc(Cl)cc2Cl)c1-c1ccc(I)cc1 | high range |
| N#CC(=C(/N)Sc1ccccc1N)/C(C#N)=C(\N)Sc1ccccc1N | high range |
| Cc1ccc(S(=O)(=O)/C=C/C#N)cc1 | low range |

Pick a category. Item: CO[C@H]1/C=C/O[C@@]2(C)Oc3c(C)c(O)c4c(O)c(c5c(c4c3C2=O)NC2(CCN(CC(C)C)CC2)N=5)=NC(=O)/C(C)=C\C=C\[C@H](C)[C@H](O)[C@@H](C)[C@@H](O)[C@@H](C)[C@H](OC(C)=O)[C@@H]1C low range

Pick a category. Item: CCCCC[C@H](O)/C=C/[C@H]1[C@H](O)CC(=O)[C@@H]1C/C=C\CCCC(=O)O mid range

Pick a category. Item: CCCCCCCC/C=C\CCCCCCCC(N)=O high range

Pick a category. Item: Cc1ccc(-c2nn(C(C)(C)C)c3ncnc(N)c23)cc1 mid range

Pick a category. Item: O=C(O)CCC/C=C\C[C@@H]1[C@@H](/C=C/[C@@H](O)COc2cccc(Cl)c2)[C@H](O)C[C@@H]1O high range

Pick a category. Item: CN(C)c1ccc(/C=C2\C(=O)Nc3ccccc32)cc1 mid range

Pick a category. Item: O=c1cc(N2CCOCC2)oc2c(-c3ccccc3)cccc12 mid range

Pick a category. Item: NC(N)=NCC1COC2(CCCCC2)O1 (configuration not stated) low range

* * *

Experiment summary: HepG2 cytotoxicity, primary screen, cytotoxicity control for P. falciparum antimalarial project, cell-based, ATP luminescence (AID 2303);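 also: 0% = DMSO wells and 100% = digitonin-killed cells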
Condition details: HepG2 viability, 24-48 h, at 10 µM, hits give high values
Measure name: inhibition (%)
The response must be a number in % with no trailing unit.

| Molecule | inhibition / % |
| --- | --- |
| Cc1cc(OCCCN2CCC(NS(=O)(=O)c3ccc(C(F)(F)F)cc3)CC2)c2ccccc2n1 | 12 |

Which inhibition is reported for this molecule? COc1ccc(CN(C)Cc2ccc(NC(=O)c3cccc4c(=O)c5cccc(C)c5[nH]c34)cc2)cc1OC 7

Which inhibition is reported for this molecule? N#Cc1ccc(N2CCN(Cc3cccc(-c4ccc(-c5nc6ccc(C(F)(F)F)cc6[nH]5)cc4)c3)CC2)nc1 39

Which inhibition is reported for this molecule? COc1ccc(Cl)cc1C(=O)Nc1ccc(-c2nc3ccccc3[nH]2)cc1 42

Which inhibition is reported for this molecule? CC(C)(C)NCCN(Cc1ccc(-c2ccc(C(F)(F)F)cc2)cc1)C(=O)Cn1c(SCc2ccc(F)cc2)nc(=O)c2c1CCC2 64

Which inhibition is reported for this molecule? N#Cc1ccc2c(c1)CCN(CCC1CCC(NC(=O)/C=C/c3cnc4ccccc4c3)CC1)CC2 (centres undefined) 22

Which inhibition is reported for this molecule? O=C(N[C@H]1CCN(Cc2ccc(OCCN3CCNCC3)c(Cl)c2)C1)c1ccc(Cl)c(Cl)c1 50

Which inhibition is reported for this molecule? CCc1cc2c(cc1CC)CC(NC[C@@H](O)c1ccc(O)c3[nH]c(=O)ccc13)C2 -3

Which inhibition is reported for this molecule? COc1ccc2nccc([C@@H](O)CN3CCC(NCCOc4cc(F)cc(F)c4)CC3)c2c1 10

* * *

Experiment summary: hESC survival regulators, cell-based (AID 493140);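 also: cells exposed to compounds for four days before counting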
Condition details: human embryonic stem cell survival screen; hits give high values
Listing of entries alongside the reported survival.
Number only, please.

| Compound | survival |
| --- | --- |
| C=C1/C(=C\C=C2/CCC[C@]3(C)[C@@H]([C@H](C)CCCC(C)(C)O)CC[C@@H]23)C[C@@H](O)C[C@@H]1O | 89.6 |

Which survival is reported for this compound? CCC[C@@H]1C[C@@H](C(=O)N[C@@H](C2O[C@H](SC)[C@H](O)[C@@H](O)[C@H]2O)[C@H](C)Cl)N(C)C1 (some centres undefined) 18.7

Which survival is reported for this compound? Oc1ccc(-c2nc(-c3ccc(F)cc3)c(-c3ccncc3)[nH]2)cc1 94

Which survival is reported for this compound? CN(Cc1cnc2nc(N)nc(N)c2n1)c1ccc(C(=O)NC(CCC(=O)O)C(=O)O)cc1 (centres undefined) 10.7
